read-out: E-selectin (Homo sapiens) (UniProt P16581); experiment: BSK_LPS_Eselectin: BioMAP Diversity Plus: LPS Assay for Eselectin Biomarker Activity (AID 2283077); conditions: primary human HUVEC with PBMC; actives raise or lower the signal
Sequence (P16581 whole entry, looked up): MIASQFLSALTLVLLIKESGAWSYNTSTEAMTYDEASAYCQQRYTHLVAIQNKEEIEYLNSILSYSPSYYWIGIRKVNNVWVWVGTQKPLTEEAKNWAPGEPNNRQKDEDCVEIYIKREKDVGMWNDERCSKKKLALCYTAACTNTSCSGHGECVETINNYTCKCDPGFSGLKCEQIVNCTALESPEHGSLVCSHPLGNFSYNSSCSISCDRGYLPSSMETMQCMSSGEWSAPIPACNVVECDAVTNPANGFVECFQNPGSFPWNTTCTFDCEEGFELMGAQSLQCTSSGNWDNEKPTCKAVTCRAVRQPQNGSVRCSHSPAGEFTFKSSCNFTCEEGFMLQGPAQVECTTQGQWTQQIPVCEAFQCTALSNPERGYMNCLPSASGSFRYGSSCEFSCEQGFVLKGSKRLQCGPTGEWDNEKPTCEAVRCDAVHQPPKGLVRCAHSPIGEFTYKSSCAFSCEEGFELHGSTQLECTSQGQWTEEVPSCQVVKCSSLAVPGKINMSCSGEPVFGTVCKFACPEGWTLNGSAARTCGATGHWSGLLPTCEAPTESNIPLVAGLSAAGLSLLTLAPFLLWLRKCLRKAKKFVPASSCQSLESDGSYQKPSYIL
The source made the active and inactive calls. The calls were made as follows: active = hit-call score of the fitted dose curve at least 0.9, where 1 is the maximum; inactive = score below 0.9.
measured parameter: outcome

So for Oc1cc2ccccc2cc1O , the logged outcome turned out to be inactive

So for COCN(COC)c1nc(N(COC)COC)nc(N(COC)COC)n1 , the logged outcome turned out to be inactive

So for CCCCCCCCCCCCCCC , the logged outcome turned out to be inactive

====

experiment: ATG_NRF2_ARE_CIS: Attagene CIS-FACTORIAL HepG2 Assay for human Nuclear Factor Erythroid 2 Related Factor 2 (NFR2) response to Antioxidant Response Elements (ARE) (AID 2282992); details: HepG2 Attagene ARE/NRF2 reporter, transcription factor activity; actives raise or lower the signal
Calls of active or inactive are those of the source. The calls were made as follows: active = hit-call score of the fitted dose curve at least 0.9, where 1 is the maximum; inactive = score below 0.9.
// allowed return values: active, inactive

Query: recorded result category for N=C(N)c1ccc(OCCCCCOc2ccc(C(=N)N)cc2)cc1 in this test active

Query: recorded result category for CCN(CC)CC in this test inactive

Query: recorded result category for CC(=O)Nc1ccc(S(N)(=O)=O)cc1 in this test inactive

Query: recorded result category for C=C(c1ccc(C(=O)O)cc1)c1cc2c(cc1C)C(C)(C)CCC2(C)C in this test inactive

Query: recorded result category for CCCCCCCCCCCCCCC in this test inactive

Now for another entry.
Query: recorded result category for FC(F)(F)C(F)(F)C(F)(F)C(F)(F)I in this test inactive

====

Read-out: Fatty Acid-Binding Protein 1 (FABP1), FABP1 (gene 2168)
Assay: LTEA_HepaRG_FABP1: Life Technologies and Expression Analysis (LTEA) Assay for Fatty Acid-Binding Protein 1 (FABP1) using HepaRG (AID 2283494)
Details: mRNA level, 48 h; actives raise or lower the signal
Description: LTEA_HepaRG is a cell based, multiplexed-readout assay that uses HepaRG, a human liver cell line, with measurements taken at 48 hours after chemical dosing on a 96-well plate.LTEA_HepaRG_FABP1 is one of 102 assay component(s) measured in the LTEA HepaRG cell culture assay. It is a marker of Steatosis.Data from the assay component LTEA_HepaRG_FABP1 was analyzed into 1 endpoint. […]
The source made the active and inactive calls. The calls were made as follows: active = hit-call score of the fitted dose curve at least 0.9, where 1 is the maximum; inactive = score below 0.9.
measured parameter: AC50

So for CCCCc1oc2ccccc2c1C(=O)c1cc(I)c(OCCN(CC)CC)c(I)c1 , the logged AC50 turned out to be 69.9 µM (active)

So for CC(=O)Nc1ccc(O)cc1 , the logged AC50 turned out to be inactive

So for N=C(N)c1ccc(OCCCCCOc2ccc(C(=N)N)cc2)cc1 , the logged AC50 turned out to be 4.05 µM (active)

So for O=C(c1ccccc1)c1ccccc1 , the logged AC50 turned out to be 0.851 µM (active)

So for CS(=O)(=O)c1ccc([C@@H](CC2CCCC2)C(=O)Nc2cnccn2)cc1Cl , the logged AC50 turned out to be 63.4 µM (active)

So for CN(C)CCOC(c1ccccc1)c1ccccc1 , the logged AC50 turned out to be inactive

So for O=C1NS(=O)(=O)c2ccccc21 , the logged AC50 turned out to be inactive

So for CCCCCCCCCCCCCCC , the logged AC50 turned out to be inactive

Now look at this entry.
So for Cc1[nH]nc2c1N=C(c1ccccc1Cl)c1cc([N+](=O)[O-])ccc1N2 , the logged AC50 turned out to be 8.85 µM (active)
